All figures here come from patent US7300784B2.

Test system: nitrile hydratase of Rhodococcus sp. Cr4
experimental details: Effect of coexisting Ni++ ion with various substrates
Assay type: biochemical
measured parameter: activity, Free

For orientation, consider the following solved cases.
- compound: "CSCCC(O)C#N (stereo not drawn) [HMBN, 2-hydroxy-4-methylthiobutyronitrile]"
  measured parameter: "activity, Free"
  result: 100
- compound: "N#CCN"
  measured parameter: "activity, Free"
  result: 0
- compound: "N#CCCO [Etylene cyanohydrin]"
  measured parameter: "activity, Free"
  result: 100
- compound: "C/C(N)=C/C#N"
  measured parameter: "activity, Free"
  result: 0
- compound: "N#Cc1ccccn1"
  measured parameter: "activity, Free"
  result: 100
- compound: "CC=CC#N"
  measured parameter: "activity, Free"
  result: 100
- compound: "N#CC(O)c1ccccc1 (stereo not drawn)"
  measured parameter: "activity, Free"
  result: 100
- compound: "CCCC#N"
  measured parameter: "activity, Free"
  result: 100
- compound: "N#Cc1ccncc1"
  measured parameter: "activity, Free"
  result: 100
- compound: "N#CCO [Hydroxyacetonitlile]"
  measured parameter: "activity, Free"
  result: 0

Find the recorded activity, Free belonging to `N#CCCN` and report it.
100

Find the recorded activity, Free belonging to `N#Cc1cccnc1` and report it.
100

---

System: nitrile hydratase of Rhodococcus sp. Cr4
Format: biochemical
Relative activity (%) values, listed per item
State just the number; it will be interpreted in %.

For orientation, consider the following solved cases.
- molecule: "[N-]=[N+]=[N-].[Na+] [NaN3]"
  readout number: 98.5
- molecule: "O=C(O)CI [Iodoacetate]"
  readout number: 97.0
- molecule: "NCCS [Cysteamine]"
  readout number: 106

Find the recorded Relative activity (%) belonging to O=C(O)c1cc(SSc2ccc([N+](=O)[O-])c(C(=O)O)c2)ccc1[N+](=O)[O-] [5-5′-Dithiobis] and report it.
99.1

Find the recorded Relative activity (%) belonging to O=C(O)CN(CCN(CC(=O)O)CC(=O)O)CC(=O)O [EDTA] and report it.
101

---

Relative activity (%) values, listed per item
Test system: nitrile hydratase of Rhodococcus sp. Cr4
experimental details: Substrate specificity of the purified nitrile hydratase (amide formation by HPLC)
Type: biochemical
experimental parameters: compound used as substrate; activity for 3-cyanopyridine = 100%; 20° C., 2.92 U enzyme
State just the number; it will be interpreted in %.

- compound: "CSCCC(O)C#N (stereo not shown) [HMBN, 2-hydroxy-4-methylthiobutyronitrile]"
  Relative activity (%): 154

Find the recorded Relative activity (%) belonging to `C=CC#N` and report it.
114

Find the recorded Relative activity (%) belonging to `CC=CC#N` and report it.
87.4

---

Relative activity (%) values, listed per item
System: nitrile hydratase of Rhodococcus sp. Cr4
Format: biochemical
Write the numeric value and append its unit.

For orientation, consider the following solved cases.
- molecule: "[Cl][Fe]([Cl])[Cl] [FeCl3]"
  assayed system: "nitrile hydratase of Rhodococcus sp. Cr4"
  Relative activity (%): "100%"
- molecule: "[Ca+2].[Cl-].[Cl-] [CaCl2]"
  assayed system: "nitrile hydratase of Rhodococcus sp. Cr4"
  Relative activity (%): "96.4%"
- molecule: "[Cl][Mn][Cl] [MnCl2]"
  assayed system: "nitrile hydratase of Rhodococcus sp. Cr4"
  Relative activity (%): "96.7%"
- molecule: "O=S(=O)([O-])[O-].[Cu+2] [CuSO4]"
  assayed system: "nitrile hydratase of Rhodococcus sp. Cr4"
  Relative activity (%): "109%"
- molecule: "O=[N+]([O-])[O-].[Ag+] [AgNO3]"
  assayed system: "nitrile hydratase of Rhodococcus sp. Cr4"
  Relative activity (%): "7.85%"

Find the recorded Relative activity (%) belonging to O=S(=O)([O-])[O-].[Zn+2] [ZnSO4] and report it.
84.1%

Find the recorded Relative activity (%) belonging to O=S(=O)([O-])[O-].[Fe+2] [FeSO4] and report it.
78.9%

---

Tested on: nitrile hydratase of Rhodococcus sp. Cr4
experimental details: Substrate specificity of the purified nitrile hydratase (amide formation by HPLC)
Type: biochemical
measured parameter: Relative activity (%)
State just the number; it will be interpreted in %.

- compound: "N#Cc1ccc(Cl)cc1 [p-Chlorobenzonitrile]"
  assayed system: "nitrile hydratase of Rhodococcus sp. Cr4"
  measured parameter: "Relative activity (%)"
  readout number: 28.4
- compound: "N#Cc1ccccc1 [Benzonitrile]"
  assayed system: "nitrile hydratase of Rhodococcus sp. Cr4"
  measured parameter: "Relative activity (%)"
  readout number: 138
- compound: "CC#N [Acetonitrile]"
  assayed system: "nitrile hydratase of Rhodococcus sp. Cr4"
  measured parameter: "Relative activity (%)"
  readout number: 14.6

Find the recorded Relative activity (%) belonging to N#Cc1cccc(Cl)c1 [m-Chlorobenzonitrile] and report it.
7.18

---

Tested on: nitrile hydratase of Rhodococcus sp. Cr4
experimental details: Substrate specificity of the purified nitrile hydratase (amide formation by HPLC)
Assay type: biochemical
experimental parameters: compound used as substrate; methanol added (final conc. 20% v/v); 20° C., 2.92 U enzyme
So basically: Relative activity (%) at 60% or higher? That is criterion met. Lower than 60%? That is criterion not met.

# count of solved cases: 6
- compound structure: "CC(C)C#N"
  class assignment: "criterion not met"
- compound structure: "N#CCc1c[nH]c2ccccc12"
  class assignment: "criterion not met"
- compound structure: "CC(C)CC#N"
  class assignment: "criterion not met"
- compound structure: "N#Cc1cccnc1"
  class assignment: "criterion met"
- compound structure: "CCCC#N"
  class assignment: "criterion met"
- compound structure: "CCCCCC#N"
  class assignment: "criterion not met"

# bool: Relative activity (%) of `CCCCC#N` >= 60%
criterion met

---

Test system: nitrile hydratase of Rhodococcus sp. Cr4
experimental details: Effect of coexisting Ni++ ion with various substrates
Assay type: biochemical
measured parameter: activity, NiCl2 (1 mM)
Just the number, please, no unit after it.

- compound: "N#CCCO [Etylene cyanohydrin]"
  activity, NiCl2 (1 mM): 91

Form entry - test system: nitrile hydratase of Rhodococcus sp. Cr4; read-out: activity, NiCl2 (1 mM); compound: `N#Cc1cccnc1`
99

Form entry - test system: nitrile hydratase of Rhodococcus sp. Cr4; read-out: activity, NiCl2 (1 mM); compound: `C/C(N)=C/C#N`
0

---

Test system: nitrile hydratase of Rhodococcus sp. Cr4
experimental details: Substrate specificity of the purified nitrile hydratase (amide formation by HPLC)
Assay type: biochemical
experimental parameters: compound used as substrate; activity for 3-cyanopyridine = 100%; 20° C., 2.92 U enzyme
measured parameter: Relative activity (%)
State just the number; it will be interpreted in %.

For orientation, consider the following solved cases.
- compound: "CCC#N [Propionitrile]"
  Relative activity (%): 173
- compound: "N#Cc1cccnc1 [3-Cyanopyridine]"
  Relative activity (%): 100
- compound: "N#Cc1cnccn1 [Cyanopyrazine]"
  Relative activity (%): 114
- compound: "N#CCC(N)=O [2-Cyanoacetamide]"
  Relative activity (%): 46.3
- compound: "N#Cc1ccccn1 [2-Cyanopyridine]"
  Relative activity (%): 223

Find the recorded Relative activity (%) belonging to N#Cc1ccncc1 [4-Cyanopyridine] and report it.
127

Find the recorded Relative activity (%) belonging to C=C(C)C#N [Methacrylonitrile] and report it.
93.7

---

activity, NiCl2 (1 mM) values, listed per item
System: nitrile hydratase of Rhodococcus sp. Cr4
experimental details: Effect of coexisting Ni++ ion with various substrates
Type: biochemical
Just the number, please, no unit after it.

For orientation, consider the following solved cases.
- compound: "N#CC(O)c1ccccc1 (stereo not drawn)"
  activity, NiCl2 (1 mM): 201
- compound: "CSCCC(O)C#N (stereo not drawn) [HMBN, 2-hydroxy-4-methylthiobutyronitrile]"
  activity, NiCl2 (1 mM): 196
- compound: "N#Cc1ccncc1"
  activity, NiCl2 (1 mM): 99
- compound: "N#Cc1ccccn1"
  activity, NiCl2 (1 mM): 97
- compound: "N#CCN"
  activity, NiCl2 (1 mM): 0
- compound: "N#CCO [Hydroxyacetonitlile]"
  activity, NiCl2 (1 mM): 0

Form entry - test system: nitrile hydratase of Rhodococcus sp. Cr4; read-out: activity, NiCl2 (1 mM); compound: `N#CCCN`
97

Form entry - test system: nitrile hydratase of Rhodococcus sp. Cr4; read-out: activity, NiCl2 (1 mM); compound: `CC=CC#N`
103

Form entry - test system: nitrile hydratase of Rhodococcus sp. Cr4; read-out: activity, NiCl2 (1 mM); compound: `CCCC#N`
94
